Below: a set of entries, each annotated with reported Population Mitochondria Different-Phenotype (%).
Test system: HEK-293T
Assay: Multiplex assay against HEK293T
Assay type: toxicity, cell-based
Conditions: human, 12 h, 10 µM, compound concentration 10 uM, replicate 2

Some solved cases for reference:
C[C@H](N)COC(=O)[C@@H](CCCCN)NC(=O)Cc1c(-c2ccc3ccccc3c2)[nH]c2c1ccc1ccccc12    72%
CN(C)C(=O)Cn1cc(-c2ccc(-c3cncc4ccccc34)cc2)cn1    69%
CC[C@@H](C)Nc1nc(C)nc2c(-c3ccc(OC)nc3C)c(C)nn12    75%
CCC(=O)N1CCN(c2ccc(-n3c(=O)ccc4cnc5ccc(-c6cnc7ccccc7c6)cc5c43)cc2C(F)(F)F)CC1    87%
CCCCCC(O)/C=C/[C@H]1C(=O)CC(O)C1C/C=C\CCCC(=O)O (some centres undefined)    59%
O=C1[C@H](Cc2ccc(O)cc2)N2C(=O)CCN(C(=O)NCc3ccccc3)[C@H]2CN1Cc1cccc2ccccc12    93%

Request: Look at this compound and give its reported Population Mitochondria Different-Phenotype (%). CC(=O)Nc1cccc2c1c(Sc1ccc(Cl)cc1)c(C)n2CC(=O)O
Response: 60%

Request: # repeat for CN1CCN(c2cc(-c3ccccc3)nc(N)n2)CC1
Response: 63%

Request: Item: Br.CS(=O)(=O)Nc1c(O)ccc2c1CCCC2C1=NCCN1 (centres undefined)
Response: 67%
